targetEntity: C-X-C chemokine receptor type 4 (Homo sapiens, UniProt P61073)
Sequence (P61073 whole entry): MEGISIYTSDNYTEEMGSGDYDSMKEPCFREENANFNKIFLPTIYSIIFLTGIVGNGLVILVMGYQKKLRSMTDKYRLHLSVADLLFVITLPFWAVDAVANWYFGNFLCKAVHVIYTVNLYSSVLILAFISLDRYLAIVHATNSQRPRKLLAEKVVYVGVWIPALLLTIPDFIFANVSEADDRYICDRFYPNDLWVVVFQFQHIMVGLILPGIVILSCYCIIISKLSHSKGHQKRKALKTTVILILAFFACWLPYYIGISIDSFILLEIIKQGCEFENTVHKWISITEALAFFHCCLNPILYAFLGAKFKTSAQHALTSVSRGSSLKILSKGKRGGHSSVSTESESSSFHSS
testProtocol: Antagonist activity at CXCR4 in human CCRF-CEM cells assessed as inhibition of CXCL12-mediated calcium flux incubated for 25 mins followed by CXCL12 stimulation measured for 90 secs
pIC50: −log10 of the molar value.
outcomeMeasure: pIC50

INSERT INTO assay_data (molecule, experimentalresult) VALUES
  ('NCC1CC1CN(C[C@H]1Cc2ccccc2CN1)[C@H]1CCCc2cccnc21 (single isomer, unassigned; diastereomer 1)', 8.19),
  ('NC/C=C\CN(C[C@H]1Cc2ccccc2CN1)[C@H]1CCCc2cccnc21', 8.00),
  ('NCC1=C(CN(C[C@H]2Cc3ccccc3CN2)[C@H]2CCCc3cccnc32)CCCC1', 6.64),
  ('C/C(CN(C[C@H]1Cc2ccccc2CN1)[C@H]1CCCc2cccnc21)=C(/F)CN', 5.74),
  ('NC(=O)NC/C=C\CN(C[C@H]1Cc2ccccc2CN1)[C@H]1CCCc2cccnc21', 6.68),
  ('N[C@H]1CC[C@@H](N(C[C@H]2Cc3ccccc3CN2)[C@H]2CCCc3cccnc32)CC1', 5.74);

(I) N[C@H]1CC[C@H](CN(C[C@H]2Cc3ccccc3CN2)[C@H]2CCCc3cccnc32)CC1
(II) C/C(CN)=C(\F)CN(C[C@H]1Cc2ccccc2CN1)[C@H]1CCCc2cccnc21
Task item: I'm curious whether I or II has the smaller pIC50 number. Which is it? Reply briefly: the label of your chosen item.
Reply: I
(I: 6.55, II: 7.55)
